assay_name: Pharmacokinetic study in mice, plasma PS metabolites by HPLC
Assay type: in vivo
conditions: plasma metabolite after PS 200 mg/kg + curcumin 500 mg/kg in 10% Tween-80
measured_endpoint: Cmax (µM)
Supply the numeric figure in µM, leaving out any unit text.

Which Cmax value belongs to CC1=C(CC(=O)O)c2cc(F)ccc2/C1=C\c1ccc(S(C)(=O)=O)cc1 ?
11.7

---

assay_name: Pharmacokinetic study in mice, plasma PS metabolites by HPLC
Format: in vivo
conditions: plasma metabolite after single oral dose PS 200 mg/kg alone
measured_endpoint: Cmax
Your reply should be a number followed by the unit it is expressed in.

I would be grateful if you could share the reported Cmax for CC1=C(CC(=O)O)c2cc(F)ccc2/C1=C\c1ccc(S(C)(=O)=O)cc1 .
5.6 µM
